- Test Target: TDO (A172 cells) (Homo sapiens, UniProt P48775)
- Construct: This assay utilised cancer cells which expressed either TDO or IDO; host or cells: A172 human glioblastoma cells
- Sequence (P48775 whole entry): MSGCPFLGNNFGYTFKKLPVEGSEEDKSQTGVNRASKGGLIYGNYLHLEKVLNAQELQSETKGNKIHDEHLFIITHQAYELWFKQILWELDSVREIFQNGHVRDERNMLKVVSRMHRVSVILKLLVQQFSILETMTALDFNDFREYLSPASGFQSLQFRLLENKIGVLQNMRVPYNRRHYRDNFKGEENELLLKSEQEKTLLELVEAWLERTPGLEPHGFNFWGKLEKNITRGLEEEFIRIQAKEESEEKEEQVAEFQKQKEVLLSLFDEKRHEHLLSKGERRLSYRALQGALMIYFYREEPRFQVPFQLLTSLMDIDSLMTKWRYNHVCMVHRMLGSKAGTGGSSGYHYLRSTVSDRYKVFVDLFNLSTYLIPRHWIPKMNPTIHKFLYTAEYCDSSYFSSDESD
- Assay Remarks: TDO cell-based assay (A172), kynurenine production
- Test Context: A172 human glioblastoma cells, 500 μM L-Trp, 48 h, kynurenine by absorbance at 490 nm
Measure: TDO cellular assay (A172) pIC50

CC(NC(=O)c1cc2cc(Cl)c(F)cc2[nH]1)c1cnn(C)c1 (centres unmarked)	+ (+ = pIC50 4.50-<5.00)
O=C(NC1CCc2ccccc21)c1cc2ccccc2[nH]1 (centres unmarked)	+ (+ = pIC50 4.50-<5.00)
C[C@@H](NC(=O)c1cc2cc(Cl)cnc2[nH]1)c1ccccc1	− (− = pIC50 <4.50)
Cc1ccccc1C1CCN(CCNC(=O)c2cc3cc(Cl)ccc3[nH]2)C1 (centres unmarked)	+ (+ = pIC50 4.50-<5.00)
Cc1ccc2[nH]c(C(=O)NCc3ccc(F)cc3)cc2c1	− (− = pIC50 <4.50)
CC(NC(=O)c1cc2cc(C(F)(F)F)ccc2[nH]1)c1cnn(C)c1 (centres unmarked)	− (− = pIC50 <4.50)

Lookup: Reported TDO cellular assay (A172) pIC50, compound O=C(Nc1cccc2cnccc12)c1cc2ccc(F)cc2[nH]1 : ____
Found: − (− = pIC50 <4.50)

Lookup: If you can, please state the reported TDO cellular assay (A172) pIC50 value of C[C@@H](NC(=O)c1nc2ccccc2o1)c1ccccc1 .
Found: − (− = pIC50 <4.50)

Lookup: Could you tell me which TDO cellular assay (A172) pIC50 is on file for CC(NC(=O)c1cc2cc(C#N)ccc2[nH]1)c1ccccc1 (centres unmarked) ?
Found: +++ (+++ = pIC50 ≥5.50)

====

- Test Target: IDO (SKOV-3 cells) (Homo sapiens)
- Construct: This assay utilised cancer cells which expressed either TDO or IDO; host or cells: SKOV-3 ovary adenocarcinoma cells, IFNγ-induced
- Assay Remarks: IDO cell-based assay (SKOV-3, IFNγ-induced), kynurenine production
- Test Context: SKOV-3 ovary adenocarcinoma cells, IFNγ 500 ng/ml, 500 μM L-Trp, 48 h, kynurenine by absorbance at 490 nm
Measure: IDO cellular assay (SKOV3) pIC50

A selection of reference data follows.
Cc1cc(C2(NC(=O)c3cc4cc(C#N)ccc4[nH]3)CC2)no1 [Compound 219]	+++ (+++ = pIC50 ≥5.50)
CC(NC(=O)c1cc2ccc(C(F)F)cc2[nH]1)c1cnn(C)c1 (stereo not drawn) [Compound 192]	+ (+ = pIC50 4.50-<5.00)
O=C(NC(c1ccccc1)C1CC1)c1cc2c(F)cccc2[nH]1 (stereo not drawn) [Compound 12]	+++ (+++ = pIC50 ≥5.50)
C[C@@H](NC(=O)c1cc2cc(F)ccc2[nH]1)c1ccccc1 [Compound 43]	+++ (+++ = pIC50 ≥5.50)
CC(C)C(NC(=O)c1cc2cc(F)ccc2[nH]1)c1cccs1 (stereo not drawn) [Compound 23]	+++ (+++ = pIC50 ≥5.50)

Lookup: Which IDO cellular assay (SKOV3) pIC50 is reported for this compound? C[C@@H](NC(=O)c1cc2cccc(F)c2[nH]1)c1ccccc1 [Compound 61]
Found: +++ (+++ = pIC50 ≥5.50)

Lookup: What value of IDO cellular assay (SKOV3) pIC50 has been recorded for this entry: COc1ccc2[nH]c(C(=O)NC(C)c3cnn(C)c3)cc2c1 (stereo not drawn) [Compound 186]
Found: +++ (+++ = pIC50 ≥5.50)

Lookup: Report IDO cellular assay (SKOV3) pIC50 for Cc1nnc(C2(NC(=O)c3cc4cc(Cl)ccc4[nH]3)CC2)[nH]1 [Compound 233] please.
Found: + (+ = pIC50 4.50-<5.00)

Lookup: GET /values?readout=IDO cellular assay (SKOV3) pIC50&item= O=C(NC1(c2ccccc2)CC1)c1cc2c(F)c(Cl)ccc2[nH]1 [Compound 194]
Found: +++ (+++ = pIC50 ≥5.50)

====

- Test Target: IDO (SKOV-3 cells) (Homo sapiens, UniProt P14902)
- Construct: This assay utilised cancer cells which expressed either TDO or IDO; host or cells: SKOV-3 ovary adenocarcinoma cells, IFNγ-induced
- Sequence (P14902 whole entry): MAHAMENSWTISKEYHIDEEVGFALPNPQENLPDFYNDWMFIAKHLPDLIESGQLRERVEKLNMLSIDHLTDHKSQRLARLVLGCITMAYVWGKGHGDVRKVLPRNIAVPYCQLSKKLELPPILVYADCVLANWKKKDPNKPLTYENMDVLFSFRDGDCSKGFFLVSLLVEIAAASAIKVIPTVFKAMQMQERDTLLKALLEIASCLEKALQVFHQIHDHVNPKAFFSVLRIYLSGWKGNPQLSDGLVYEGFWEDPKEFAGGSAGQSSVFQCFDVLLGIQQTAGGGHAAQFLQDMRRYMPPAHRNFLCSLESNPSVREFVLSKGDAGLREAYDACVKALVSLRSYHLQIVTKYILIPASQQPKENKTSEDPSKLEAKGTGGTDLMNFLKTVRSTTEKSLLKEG
- Assay Remarks: IDO cell-based assay (SKOV-3, IFNγ-induced), kynurenine production
- Test Context: SKOV-3 ovary adenocarcinoma cells, IFNγ 500 ng/ml, 500 μM L-Trp, 48 h, kynurenine by absorbance at 490 nm
Measure: IDO cellular assay (SKOV3) pIC50

CC(NC(=O)c1cc2cc(OCc3ccccc3)ccc2[nH]1)c1cnn(C)c1 (stereo not drawn) [Compound 239]	+ (+ = pIC50 4.50-<5.00)
CC(C)Oc1ccc2[nH]c(C(=O)N[C@H](C)c3ccccc3)cc2c1 [Compound 260]	+++ (+++ = pIC50 ≥5.50)
COCCn1cc(C(C)NC(=O)c2cc3cc(C#N)ccc3[nH]2)cn1 (stereo not drawn) [Compound 197]	+ (+ = pIC50 4.50-<5.00)
CC(C)NC(=O)c1cc2cc(Cl)ccc2[nH]1 [Compound 67]	+ (+ = pIC50 4.50-<5.00)
O=C(NC1(c2ccc(F)cc2)COC1)c1cc2cc(Cl)ccc2[nH]1 [Compound 244]	+++ (+++ = pIC50 ≥5.50)

Lookup: Look at this compound and give its reported IDO cellular assay (SKOV3) pIC50. O=C(NC1(c2ccccc2)CC1)c1cc2ccc(O)cc2[nH]1 [Compound 172]
Found: + (+ = pIC50 4.50-<5.00)

Lookup: GET /values?readout=IDO cellular assay (SKOV3) pIC50&item= O=C(NCc1ccncc1)c1cc2cc(Cl)ccc2[nH]1 [Compound 5]
Found: + (+ = pIC50 4.50-<5.00)

Lookup: Which IDO cellular assay (SKOV3) pIC50 value belongs to CC(NC(=O)c1cc2cc(Br)ccc2[nH]1)c1cnn(C)c1 (stereo not drawn) [Compound 254] ?
Found: +++ (+++ = pIC50 ≥5.50)

====

- Test Target: TDO (A172 cells) (Homo sapiens)
- Construct: This assay utilised cancer cells which expressed either TDO or IDO; host or cells: A172 human glioblastoma cells
- Assay Remarks: TDO cell-based assay (A172), kynurenine production
- Test Context: A172 human glioblastoma cells, 500 μM L-Trp, 48 h, kynurenine by absorbance at 490 nm
Measure: TDO cellular assay (A172) pIC50

Take a look at these entries with their results.
CC(NC(=O)c1cc2cc(Cl)ccc2[nH]1)C1CC1 (centres unmarked) [Compound 94]	+ (+ = pIC50 4.50-<5.00)
O=C(NC1CCCc2ccccc21)c1cc2ccccc2[nH]1 (centres unmarked) [Compound 66]	− (− = pIC50 <4.50)
CC(NC(=O)c1cc2ccncc2[nH]1)c1ccccc1 (centres unmarked) [Compound 81]	− (− = pIC50 <4.50)
O=C(NC1(c2ccccc2)CCCC1)c1cc2cc(Cl)ccc2[nH]1 [Compound 230]	− (− = pIC50 <4.50)
Cc1cccc2[nH]c(C(=O)NC(C)c3ccccc3)cc12 (centres unmarked) [Compound 77]	+ (+ = pIC50 4.50-<5.00)
COc1ccc2[nH]c(C(=O)NC3(c4cnn(C)c4)CC3)cc2c1 [Compound 176]	− (− = pIC50 <4.50)
N#Cc1ccc2[nH]c(C(=O)NC3(c4ccccc4)CC3)cc2c1 [Compound 136]	− (− = pIC50 <4.50)
CS(=O)(=O)N1CCC(C2(NC(=O)c3cc4cc(Cl)ccc4[nH]3)CC2)CC1 [Compound 161]	− (− = pIC50 <4.50)

Next item in the queue.
Lookup: Please state recorded TDO cellular assay (A172) pIC50 (tested on TDO (A172 cells) (Homo sapiens)) of O=C(NC1(c2ccc(Cl)cc2)CC1)c1cc2cc(Cl)ccc2[nH]1 [Compound 148]
Found: + (+ = pIC50 4.50-<5.00)

====

- Test Target: IDO (SKOV-3 cells) (Homo sapiens, UniProt P14902)
- Construct: This assay utilised cancer cells which expressed either TDO or IDO; host or cells: SKOV-3 ovary adenocarcinoma cells, IFNγ-induced
- Assay Remarks: IDO cell-based assay (SKOV-3, IFNγ-induced), kynurenine production
- Test Context: SKOV-3 ovary adenocarcinoma cells, IFNγ 500 ng/ml, 500 μM L-Trp, 48 h, kynurenine by absorbance at 490 nm
Measure: IDO cellular assay (SKOV3) pIC50

Example cases with answers are listed next.
CC(NC(=O)c1cc2ccccc2[nH]1)c1ccc(Cl)cc1 (stereo not drawn)	+++ (+++ = pIC50 ≥5.50)
CC(=O)N1CCC(C2(NC(=O)c3cc4cc(Cl)ccc4[nH]3)CC2)CC1	+++ (+++ = pIC50 ≥5.50)
COc1ccc(-c2noc(C(C)NC(=O)c3cc4cc(Cl)ccc4[nH]3)n2)cc1OC (stereo not drawn)	+++ (+++ = pIC50 ≥5.50)
COc1ccc(-n2cc(C(C)NC(=O)c3cc4cc(Cl)ccc4[nH]3)cn2)cc1 (stereo not drawn)	+++ (+++ = pIC50 ≥5.50)

Lookup: Bench note: what IDO cellular assay (SKOV3) pIC50 did Cn1cc(C2(NC(=O)c3cc4c(F)c(Cl)ccc4[nH]3)CC2)cn1 show?
Found: +++ (+++ = pIC50 ≥5.50)
